experiment: RPMI8226 myeloma cell viability, profiling panel, resazurin fluorescence, basal, 24 h, PK04 Diversity Set (AID 1180); details: higher = more signal;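 also: RPMI8826 multiple myeloma cell line at 5000 cells per well; test concentration not given here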
Exercise: for every item that follows, state its recorded z-score.
Numbers only.

Known results for compounds:
compound=O=C1O[C@H](c2ccccc2)[C@H](c2ccccc2)N2[C@H]1[C@@H](C(=O)N1CCN(c3ncccn3)CC1)[C@]1(C(=O)Nc3ccc(C#CC4(O)CCCCCC4)cc31)[C@H]2c1ccc(O)cc1 quantitative_result=0.995
compound="C=CCC(OC(C)=O)[C@@H]1[C@@H](N(Cc2cccc3ccccc23)C(=O)c2ccc(C)cc2)c2cc(OCCCO)ccc2N1C(=O)Cc1ccc2ccccc2c1 (stereo not given in full)" quantitative_result=0.608
compound=CCCCC(=C=CC[C@@H](O)c1ccc(OCCO)cc1)CCO quantitative_result=1.3

Batch request: z-score for each of the following compounds.
1. CCOC(=O)C[C@H]1[C@H](OC(=O)c2ccc(-c3ccccc3)cc2)[C@@H](NC(=O)C2CCCCC2)c2cc(OCCCO)ccc2N1C(=O)Cc1ccc(OC)cc1
2. [N-]=[N+]=NCc1ccccc1[C@H]1OC(c2ccc(OCCCO)cc2)=N[C@@]1(CCS(=O)(=O)c1ccccc1)C(=O)NCCN1CCOCC1
3. COc1ccc(NN2C(C(O)c3ccc(F)cc3)C=CC3C(=O)N(C4CCCCC4)C(=O)C32)cc1 (stereo not given)
4. C=CCC(OC(C)=O)[C@@H]1[C@@H](N(Cc2ccc(-c3ccccc3)cc2)C(=O)Cc2ccc(OC)cc2)c2cc(OCCCO)ccc2N1C(=O)c1ccc2ccccc2c1 (stereo not given in full)
5. CO[C@H]1O[C@H](CO)[C@@H](OC(=O)Nc2cccc(F)c2)[C@H](OC(=O)Nc2ccc3c(c2)OCO3)[C@@H]1OC(=O)Nc1ccc2c(c1)OCO2
6. CCN1C(=O)C2CC(=O)C3C(CN(S(=O)(=O)c4ccc(C)cc4)C3c3ccc(C)cc3)C2C1=O (stereo not given)
7. C=CC[C@]1(C(N)=O)N=C(c2ccc(OCCCO)cc2)O[C@H]1c1ccccc1N=[N+]=[N-]

-0.131
0.548
-0.352
0.186
-0.931
-0.627
-0.733

Batch request: z-score for each of the following compounds.
1. CCOC(=O)C1=C[C@@H](C(C)(C)C)N(S(=O)(=O)c2ccc(C)cc2)[C@H]1c1ccc(OC)cc1
2. C=CCOC(=O)[C@H]1[C@@H]2C(=O)O[C@@H](c3ccccc3)[C@@H](c3ccccc3)N2[C@@H](c2ccc(OCCOC(=O)[C@@H]3C[C@@H]4C(=O)N[C@@H](Cc5ccccc5)C(=O)N4[C@@H]3c3ccc(O)cc3)cc2)[C@]12C(=O)Nc1ccc(I)cc12
3. COc1cc(Cc2cc3c(c(CCc4ccccc4)n2)[Si](C(C)C)(C(C)C)O[C@H]3c2ccccc2)cc(OC)c1OC
4. Cc1ccc(S[C@]2(C(=O)NCc3ccccc3)CC(=O)N(Cc3ccccc3Cl)[C@@H]2c2ccc(CO)cc2)cc1
5. COC(=O)[C@]1(Cc2ccccc2N=[N+]=[N-])N=C(c2ccc(OCCCO)cc2)O[C@@H]1c1ccccc1CN=[N+]=[N-]

1. -1.23
2. -0.721
3. -0.163
4. 0.335
5. -7.07
